tested on: BME26 embryonic cells; assay: MTT viability assay on BME26 embryonic cells; format: cell-based, Rhipicephalus microplus; settings: Rhipicephalus microplus, 24 h, BME26, MTT, 24 h; read-out: IC50 in BME26 cells (In vitro anti-R. microplus)
For each of the compounds below, state its IC50.
Answers are plain numbers, in µM.

For each of the items listed, what is its IC50?
1. O=C1C(=Cc2ccc([N+](=O)[O-])cc2)C(=O)N(Cc2ccccc2)S(=O)(=O)N1Cc1ccccc1
2. O=C(N/N=C/C=C/c1ccc([N+](=O)[O-])o1)Nc1ccc2ccccc2c1

[reply]
1. 71
2. 67
